Cited source for all entries: paper PMC6690930

MEASURED_TARGET: AmGr10 (Apis mellifera)
Sequence (A0A7M6W8K8 entry or part of it): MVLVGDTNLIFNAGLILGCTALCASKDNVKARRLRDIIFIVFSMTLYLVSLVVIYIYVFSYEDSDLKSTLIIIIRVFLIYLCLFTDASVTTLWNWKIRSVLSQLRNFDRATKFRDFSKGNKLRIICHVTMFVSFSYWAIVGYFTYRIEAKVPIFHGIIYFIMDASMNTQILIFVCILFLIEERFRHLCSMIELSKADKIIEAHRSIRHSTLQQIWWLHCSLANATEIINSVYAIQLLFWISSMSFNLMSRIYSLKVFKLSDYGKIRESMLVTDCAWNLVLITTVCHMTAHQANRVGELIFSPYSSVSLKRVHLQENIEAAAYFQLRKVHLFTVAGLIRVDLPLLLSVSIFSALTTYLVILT
PROTOCOL_SUMMARY: Intracellular calcium assay (Fluo-4) in HEK 293 cells expressing AmGr10
Format: cell-based
MEASUREMENT_CONDITIONS: 100 mM of amino acid
MEASURED_QUANTITY: Response of HEK 293 cells expressing AmGr10 (in words)

Check out these entries, answers already filled in.
N[C@@H](CCC(=O)O)C(=O)O [L-glutamate, L-Glutamic acid]    highest responses
N[C@@H](CC(=O)O)C(=O)O [L-aspartate, L-Aspartic acid]    highest responses
NC(=O)C[C@H](N)C(=O)O [L-asparagine, L-Asparagine]    significant responses
N=C(N)NCCC[C@H](N)C(=O)O [L-arginine, L-Arginine]    significant responses
NCCCC[C@H](N)C(=O)O [L-lysine, L-Lysine]    significant responses

// switching to the query molecule
Determine reported Response of HEK 293 cells expressing AmGr10 (in words) for NC(=O)CC[C@H](N)C(=O)O [L-glutamine, L-Glutamine] ; test system: AmGr10 (Apis mellifera).
significant responses
